The reported numbers originate from paper PMC10786891.

- target-entity: T1, EsCas13d, nuclease-dead (Eubacterium siraeum, UniProt B0MS50, R295A;H300A;R849A;H854A)
- T1 sequence: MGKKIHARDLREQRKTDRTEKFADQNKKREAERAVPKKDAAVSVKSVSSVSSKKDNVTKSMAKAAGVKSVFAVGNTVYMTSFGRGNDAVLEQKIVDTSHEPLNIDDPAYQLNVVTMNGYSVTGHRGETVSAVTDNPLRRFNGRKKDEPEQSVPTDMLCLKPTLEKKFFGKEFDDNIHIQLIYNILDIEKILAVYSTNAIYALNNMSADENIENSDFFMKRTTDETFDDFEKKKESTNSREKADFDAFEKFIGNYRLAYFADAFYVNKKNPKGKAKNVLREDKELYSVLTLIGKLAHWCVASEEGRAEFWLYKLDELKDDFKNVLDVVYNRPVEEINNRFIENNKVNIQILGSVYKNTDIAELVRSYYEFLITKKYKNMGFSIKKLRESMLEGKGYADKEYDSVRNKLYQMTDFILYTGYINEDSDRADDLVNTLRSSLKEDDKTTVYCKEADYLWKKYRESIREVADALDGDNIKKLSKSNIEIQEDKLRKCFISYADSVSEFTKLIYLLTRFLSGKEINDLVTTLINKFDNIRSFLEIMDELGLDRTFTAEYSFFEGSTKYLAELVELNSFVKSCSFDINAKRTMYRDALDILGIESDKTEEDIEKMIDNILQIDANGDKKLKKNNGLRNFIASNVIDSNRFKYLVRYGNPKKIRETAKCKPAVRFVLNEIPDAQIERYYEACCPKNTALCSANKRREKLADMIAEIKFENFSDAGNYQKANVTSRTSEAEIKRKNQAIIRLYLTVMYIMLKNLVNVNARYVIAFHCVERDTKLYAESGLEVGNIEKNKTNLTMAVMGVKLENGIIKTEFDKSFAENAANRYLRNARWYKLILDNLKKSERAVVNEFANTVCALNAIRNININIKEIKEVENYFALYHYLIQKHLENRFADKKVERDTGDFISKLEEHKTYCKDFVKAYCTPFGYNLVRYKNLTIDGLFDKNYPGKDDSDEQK
- method: crRNA (strand 1, pre-loaded); Mg2+; 40 mM Tris-HCl pH 7.5, 150 mM NaCl, 6 mM MgCl2, 1 mM DTT, 0.1% Tween-20, 0.2 mg/ml BSA; 25 C; 10 min per concentration, then washed
- measurement-setup: tags: His6-TwinStrep-SUMO cleaved; N-terminal SNAP kept (SNAP-Surface 488); label: 3' end held by stalled T7 RNA polymerase
pKd: −log10 of the molar value.
Rule: pKd under 8 gives Not fulfilled, otherwise Fulfilled.

Could you please find out whether target 2 MT 5'PFS UCG 3'PFS CAC (mixed) RNA 1: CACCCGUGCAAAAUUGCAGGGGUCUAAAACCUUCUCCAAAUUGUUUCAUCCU RNA 2: GGGAAUGGAUCCACAUCUACGAAUUCUCGAGGAUGAAACAAUUUGGAGAAGCACAGAUCGGAAGAGCACACGU has pKd that meets 8 or exceeds it?
Not fulfilled

In plain terms: is recorded pKd at least 8 for target 1 U10G,A18U (mixed) RNA 1: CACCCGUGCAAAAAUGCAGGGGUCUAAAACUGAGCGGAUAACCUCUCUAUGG RNA 2: GGGAAUGGAUCCACAUCUACGAAUUCGUACCAUUGAGAGGUGAUCCGCUCACCGAGAUCGGAAGAGCACACGU ?
Not fulfilled

Is reported pKd greater than or equal to 8 here: target 3 G4C,U8G (mixed) RNA 1: CACCCGUGCAAAAUUGCAGGGGUCUAAAACGACCUGAAUAUUUCAGAUCAAA RNA 2: GGGAAUGGAUCCACAUCUACGAAUUCGUUUUUGAUCUGAAAUAGUCACGUCUGCAGAUCGGAAGAGCACACGU
Not fulfilled

Entry target 2 MT 5'PFS GAG 3'PFS AGG (mixed) RNA 1: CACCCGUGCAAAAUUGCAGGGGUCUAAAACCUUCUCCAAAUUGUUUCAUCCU RNA 2: GGGAAUGGAUCCACAUCUACGAAUUCGAGAGGAUGAAACAAUUUGGAGAAGAGGAGAUCGGAAGAGCACACGU : is its pKd no less than 8?
Fulfilled

# check: pKd of target 1 A1G,U19A (mixed) RNA 1: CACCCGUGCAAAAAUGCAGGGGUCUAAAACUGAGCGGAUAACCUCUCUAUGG RNA 2: GGGAAUGGAUCCACAUCUACGAAUUCGUACCAAAGAGAGGUUAUCCGCUCGCCGAGAUCGGAAGAGCACACGU is greater than or equal to 8
Not fulfilled
